# Test system: SK-MEL-28
# method: NCI tumour cell line growth inhibition, 48 h
Active and inactive are the calls of the source. Rule as the data show it: active = GI50 up to about 1.1 µM and inactive = higher.
Outcome codes: t (active), f (inactive)

[
  {
    "compound": "COC1/C=C\\C=C(/C)C(=O)NC2=CC(=O)C(O)=C(CC(C)CC(OC)C(O)C(C)/C=C(\\C)C1OC(N)=O)C2=O (centres undefined)",
    "category": "t"
  },
  {
    "compound": "O=C(NCCCCCCCCCCCCNC(=O)c1cccc2ccccc12)c1cccc2ccccc12",
    "category": "f"
  },
  {
    "compound": "O=C(CCC1CCCCN1)Nc1ccc2c(c1)C(=O)c1ccc(NC(=O)CCN3CCCCC3)cc1C2=O (centres undefined)",
    "category": "f"
  },
  {
    "compound": "CCO/C=N/C1=C(C#N)SC2=N/C(=C\\c3ccccc3)C(=O)N21",
    "category": "f"
  }
]
